This document collects Ki values reported for Plasminogen (Homo sapiens, UniProt P00747).
*1 amine or outer side, *2 acyl side, *3 side chain or, on linkers, in order; H or OH if unused. Where a SMILES comes first, the peptide text is derived from it. [ ]: non-standard residue; d: D form. The star is where a group is joined. X1 = O=C1[C@@H](CCC(=O)[*:2])CCC[C@H]1N[*:1]; Met(O2) = CS(=O)(=O)CC[C@H](N)C(=O)O; Cbz = O=C(OCc1ccccc1)*
Give the value, in units of nM, as a plain number.

INSERT INTO measurements (compound, attributemeasured, readoutvalue) VALUES
  ('N=C(N)NCc1cccc(C[C@H](NC(=O)[C@@H](CCCc2ccccc2)NS(=O)(=O)Cc2cccc(C(=O)O)c2)C(=O)NCc2ccc(C(=N)N)cc2)c1', 'Ki', 0.81);

What measured Ki is associated with N=C(N)c1ccc(CNC(=O)[C@@H]2Cc3ccc(cc3)OCCCCOc3ccc(cc3)C[C@@H](NS(=O)(=O)Cc3ccccc3)C(=O)N2)cc1 on Plasminogen (Homo sapiens, UniProt P00747)?
1.1

So what Ki did O=C(CC[C@H]1CCC[C@@H](NC(=O)[C@H](Cc2c[nH]c3ccccc23)NC(=O)[C@H](Cc2c[nH]c3ccccc23)NC(=O)OCc2ccccc2)C1=O)N[C@@H](Cc1c[nH]c2ccccc12)C(=O)N[C@@H](Cc1ccc(O)cc1)C(=O)O (Cbz-WW[X1]WY-OH) get with Plasminogen (Homo sapiens, UniProt P00747)?
2700

Request body: readout Ki, system Plasminogen (Homo sapiens, UniProt P00747), query CCCCCCCCNC(=O)[C@@H](Cc1ccc(OCc2ccncc2)cc1)NC(=O)[C@H]1CC[C@H](CN)CC1 . Return the value.
530

// map CC(=O)N[C@@H](CCCNC(=N)N)C(=O)N[C@@H](CCS(C)(=O)=O)C(=O)N[C@@H](Cc1ccc(O)cc1)C(=O)N[C@H](C=O)CCCNC(=N)N (Ac-R[Met(O2)]YR-aldehyde) to recorded Ki (system: Plasminogen (Homo sapiens, UniProt P00747))
Sequence (P00747 97-580 limits assumed): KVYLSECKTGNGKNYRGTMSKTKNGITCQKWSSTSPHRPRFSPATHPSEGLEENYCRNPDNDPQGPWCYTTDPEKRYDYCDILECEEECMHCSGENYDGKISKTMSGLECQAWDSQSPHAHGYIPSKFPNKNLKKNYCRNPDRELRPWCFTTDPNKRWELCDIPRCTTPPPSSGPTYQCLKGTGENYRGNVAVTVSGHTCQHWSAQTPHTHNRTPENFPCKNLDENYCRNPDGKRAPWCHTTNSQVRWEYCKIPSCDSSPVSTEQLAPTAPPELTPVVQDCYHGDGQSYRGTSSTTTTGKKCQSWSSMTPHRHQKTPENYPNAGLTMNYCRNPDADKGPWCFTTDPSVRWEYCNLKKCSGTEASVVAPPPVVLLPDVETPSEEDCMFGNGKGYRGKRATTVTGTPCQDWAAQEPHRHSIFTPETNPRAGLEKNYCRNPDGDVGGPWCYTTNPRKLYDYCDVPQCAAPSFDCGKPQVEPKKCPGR
Sequence (P00747 581-810 limits assumed): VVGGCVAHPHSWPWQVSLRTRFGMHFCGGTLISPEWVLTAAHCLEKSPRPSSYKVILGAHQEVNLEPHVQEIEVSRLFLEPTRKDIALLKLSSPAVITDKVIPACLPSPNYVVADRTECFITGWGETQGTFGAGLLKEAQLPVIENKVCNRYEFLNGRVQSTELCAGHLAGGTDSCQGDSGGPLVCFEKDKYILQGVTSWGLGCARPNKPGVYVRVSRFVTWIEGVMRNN
3.08

----------
molecular target: Coagulation factor X (Homo sapiens, UniProt P00742)
Sequence (P00742 41-179 limits assumed): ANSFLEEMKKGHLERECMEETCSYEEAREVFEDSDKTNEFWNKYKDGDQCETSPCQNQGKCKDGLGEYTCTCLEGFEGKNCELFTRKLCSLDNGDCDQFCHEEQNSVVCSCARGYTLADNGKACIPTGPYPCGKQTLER
Sequence (P00742 235-488 limits assumed): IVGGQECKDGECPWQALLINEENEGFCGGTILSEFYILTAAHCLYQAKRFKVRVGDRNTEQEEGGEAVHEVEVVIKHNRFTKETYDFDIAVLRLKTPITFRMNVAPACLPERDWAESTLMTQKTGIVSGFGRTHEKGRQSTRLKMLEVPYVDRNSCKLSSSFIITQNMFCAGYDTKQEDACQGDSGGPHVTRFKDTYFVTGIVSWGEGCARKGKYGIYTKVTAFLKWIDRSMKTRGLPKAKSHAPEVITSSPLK
attributeMeasured: pKi
Please keep in mind that pKi is minus log10 of the molar concentration; only the number is needed.

INSERT INTO results (structurenotation, testedon, attributemeasured, readoutvalue) VALUES
  ('N=C(N)c1ccc(CNC(=O)[C@@H]2Cc3cccc(c3)CNC(=O)CN3CCN(CC3)CC(=O)NCc3cccc(c3)C[C@@H](NS(=O)(=O)Cc3ccccc3)C(=O)N2)cc1', 'Coagulation factor X (Homo sapiens, UniProt P00742)', 'pKi', 7.68),
  ('N=C(N)c1ccc(CNC(=O)[C@@H]2Cc3ccc(cc3)OCCCCOc3ccc(cc3)C[C@@H](NS(=O)(=O)Cc3ccccc3)C(=O)N2)cc1', 'Coagulation factor X (Homo sapiens, UniProt P00742)', 'pKi', 6.11),
  ('N=C(N)c1ccc(CNC(=O)[C@@H]2Cc3cn(nn3)Cc3cccc([n+]3[O-])Cn3cc(nn3)C[C@@H](NS(=O)(=O)Cc3ccccc3)C(=O)N2)cc1', 'Coagulation factor X (Homo sapiens, UniProt P00742)', 'pKi', 5.51);

# context switch: different compound, same pKi
Record request: pKi value, item N=C(N)NCc1cccc(C[C@H](NC(=O)[C@@H](CCCc2ccccc2)NS(=O)(=O)Cc2cccc(C(=O)O)c2)C(=O)NCc2ccc(C(=N)N)cc2)c1
7.38
